assay-text: patients with anti-drug antibodies; higher = more immunogenic
patients with anti-drug antibodies reference
quantity-kind: patients with anti-drug antibodies (%)

• unnamed (protein) chain 1: QVQLVESGGGVVQPGRSLRLSCAASGFTFSSYGMHWVRQAPGKGLEWVAVIWYDGSNEYYADSVKGRFTISRDNSKNTLYLQMNSLRAEDTAVYYCARDRGYTSSWYPDAFDIWGQGTMVTVSS chain 2: QSVLTQPPSVSGAPGQRVTISCTGSSSNTGAGYDVHWYQQVPGTAPKLLIYGSGNRPSGVPDRFSGSKSGTSASLAITGLQAEDEADYYCQSYDSSLSGWVFGGGTRLTVL = 2.5
• unnamed (protein) chain 1: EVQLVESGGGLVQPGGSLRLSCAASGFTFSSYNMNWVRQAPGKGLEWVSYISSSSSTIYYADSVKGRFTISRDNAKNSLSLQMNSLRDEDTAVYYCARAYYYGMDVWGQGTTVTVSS chain 2: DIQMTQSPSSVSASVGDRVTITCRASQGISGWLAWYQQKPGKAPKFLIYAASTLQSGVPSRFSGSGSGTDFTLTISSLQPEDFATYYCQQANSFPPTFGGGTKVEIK = 1
• unnamed (protein) chain 1: EVQLVESGGGLVQPGGSLRLSCAASGFFITNNYWGWVRQAPGKGLEWVGYISYSGSTSYNPSLKSRFTISRDTSKNTFYLQMNSLRAEDTAVYYCARTGSSGYFDFWGQGTLVTVSS chain 2: DIQMTQSPSSLSASVGDRVTITCRASESVDDLLHWYQQKPGKAPKLLIKYASQSISGVPSRFSGSGSGTDFTLTISSLQPEDFATYYCQQGNSLPNTFGQGTKVEIK = 5
